# target system: BTK (Homo sapiens (Human))
# Sequence (Q06187 whole entry): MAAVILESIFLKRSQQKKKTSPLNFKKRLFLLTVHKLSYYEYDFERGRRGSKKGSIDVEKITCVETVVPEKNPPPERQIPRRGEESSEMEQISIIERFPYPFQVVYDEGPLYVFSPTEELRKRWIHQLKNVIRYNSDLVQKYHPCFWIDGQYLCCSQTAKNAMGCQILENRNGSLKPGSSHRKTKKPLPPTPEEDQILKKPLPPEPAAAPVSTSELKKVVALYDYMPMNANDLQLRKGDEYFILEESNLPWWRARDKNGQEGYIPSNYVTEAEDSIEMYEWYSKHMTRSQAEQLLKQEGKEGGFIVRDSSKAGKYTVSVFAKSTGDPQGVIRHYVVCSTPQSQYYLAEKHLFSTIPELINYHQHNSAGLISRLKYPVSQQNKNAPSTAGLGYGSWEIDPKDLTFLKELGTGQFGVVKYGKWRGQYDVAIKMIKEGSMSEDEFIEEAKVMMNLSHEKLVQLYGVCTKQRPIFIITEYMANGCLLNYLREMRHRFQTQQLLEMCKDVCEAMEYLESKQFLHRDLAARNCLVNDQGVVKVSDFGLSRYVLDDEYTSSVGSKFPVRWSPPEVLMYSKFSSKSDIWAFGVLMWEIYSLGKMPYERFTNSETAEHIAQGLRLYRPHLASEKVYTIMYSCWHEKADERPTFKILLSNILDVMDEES
# test method notes: BTK degradation in OCI-LY10 cells (Total-BTK HTRF kit)
# Type: cell-based
# conditions: OCI-Ly10, OCI-LY10 cells, 24 (or 6) h incubation; maximum degradation rate
experimental readout: Dmax (%)

CN1CCN([C@@H]2CCCN(c3cnc(C(N)=O)c(Nc4ccc(C5CCC6(CC5)CN(CC5CN(c7ccc8c(C9CCC(=O)NC9=O)noc8c7)C5)C6)cc4)n3)C2)C1=O (stereo partly shown) = 99
CN1CCN([C@@H]2CCCN(c3cnc(C(N)=O)c(Nc4ccc(C5CCN(C[C@@H]6CCC(c7ccc8c(C9CCC(=O)NC9=O)noc8c7)C6)CC5)cc4)n3)C2)C1=O (stereo partly shown) = 99
CN1CCN([C@@H]2CCCN(c3cnc(C(N)=O)c(Nc4ccc(C5CCC6(CC5)CN(CC5Cc7ccc8c(C9CCC(=O)NC9=O)noc8c7C5)C6)cc4)n3)C2)C1=O (stereo partly shown) = 96
CN1CCN([C@@H]2CCCN(c3cnc(C(N)=O)c(Nc4ccc(N5CCC(N6CCc7ccc8c(C9CCC(=O)NC9=O)noc8c7CC6)CC5)cc4)n3)C2)C1=O (stereo partly shown) = 95
CN1CCN([C@@H]2CCCN(c3cnc(C(N)=O)c(Nc4ccc(C5CCN(C6CN(c7ccc8c(C9CCC(=O)NC9=O)noc8c7)C6)CC5)cc4)n3)C2)C1=O (stereo partly shown) = 99
CN1CCN([C@@H]2CCCN(c3cnc(C(N)=O)c(Nc4ccc(C5CCN(C[C@H]6CCN(c7cccc8c(C9CCC(=O)NC9=O)noc78)C6)CC5)cc4)n3)C2)C1=O (stereo partly shown) = 99

Where these numbers come from: patent US20250152719A1
